# Species: Homo sapiens
# procedureText: Selectivity index, ratio of Ki for inhibition of human CA2 to Ki for inhibition of human CA12
Param threshold (3) applies to Ratio Ki; output YES when value >= threshold, NO when value < threshold.

1) N#CCCN(CCc1ccccc1)CC(=O)N(CCC#N)CCc1ccc(S(N)(=O)=O)cc1    NO
2) CCN(CC)CC(=O)N(CCc1ccc(S(N)(=O)=O)cc1)Cc1ccccc1    NO
3) N#CCCN(CCc1ccccc1)CC(=O)N(CCc1ccccc1)CCc1ccc(S(N)(=O)=O)cc1    YES
4) NS(=O)(=O)c1ccc(CCN(Cc2ccco2)C(=O)CN(CCC(=O)O)CCc2ccccc2)cc1    NO
5) CCCCCCN(CCCCCC)CC(=O)N(CCC(=O)O)CCc1ccc(S(N)(=O)=O)cc1    YES

// query Quick check, Ratio Ki >= 3? CCCCCCCC/C=C\CCCCCCCCNC(=O)CCN(CCc1ccccc1)CC(=O)N(CCc1ccc(S(N)(=O)=O)cc1)Cc1ccco1
// result YES

// query Quick check, Ratio Ki >= 3? N#CCCN(CCc1ccccc1)CC(=O)N(CCc1ccc(S(N)(=O)=O)cc1)Cc1ccco1
// result YES

// query Quick check, Ratio Ki >= 3? NS(=O)(=O)c1ccc(CCNCc2ccco2)cc1
// result NO

// query Quick check, Ratio Ki >= 3? CCCCCCN(CCCCCC)CC(=O)N(CCc1ccc(S(N)(=O)=O)cc1)Cc1ccccc1
// result NO

// query Quick check, Ratio Ki >= 3? NCCCN(CCc1ccccc1)CC(=O)N(CCc1ccccc1)CCc1ccc(S(N)(=O)=O)cc1
// result YES

// query Quick check, Ratio Ki >= 3? CCCCCCN(CCCCCC)CC(=O)N(CCc1ccc(S(N)(=O)=O)cc1)Cc1ccc2ccccc2c1
// result YES
